Assay: HCT116 colon cancer cell growth inhibition, primary screen, CellTiter-Glo luminescence, NPC library (AID 1117342)
Settings: at 20 µM (top of the series)
The source made the active and inactive calls.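 Rule for the calls: active = compounds that lower survival of HCT116 colon cancer cells in the luminescence readout, no numeric limit stated; inactive = the rest.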
Respond using exactly one of the listed classes: t (active), f (inactive)

{"molecule": "CCCCCCCCCCCCCCCCCCCCCC(=O)Nc1ccn([C@@H]2O[C@H](CO)[C@@H](O)[C@H]2O)c(=O)n1", "answer-label": "f"}
{"molecule": "c1ccc(CC2=NCCN2)cc1", "answer-label": "f"}
{"molecule": "NCCc1ccc(O)c(O)c1", "answer-label": "f"}

**Query** Query: recorded result category for CCOC(=O)[C@H](CCc1ccccc1)N[C@@H](C)C(=O)N1Cc2ccccc2C[C@H]1C(=O)O in this test
**Result** f

**Query** Query: recorded result category for CN(C)CCc1c[nH]c2ccc(C[C@H]3COC(=O)N3)cc12 in this test
**Result** f

**Query** Query: recorded result category for O=c1n(CCCN2CCN(c3cccc(Cl)c3)CC2)nc2ccccn12 in this test
**Result** f

**Query** Query: recorded result category for O=C(CCCCCCCCC#CI)Oc1ccccc1 in this test
**Result** f

**Query** Query: recorded result category for CCN1CCCC1=O in this test
**Result** f

**Query** Query: recorded result category for O=C(O)[C@@H]1CCCN1 in this test
**Result** f

**Query** Query: recorded result category for CCOC(=O)c1ccc(O)c(O)c1 in this test
**Result** t

**Query** Query: recorded result category for CCCCCCCCCCC[C@@H](C[C@@H]1OC(=O)[C@H]1CCCCCC)OC(=O)[C@H](CC(C)C)NC=O in this test
**Result** f

**Query** Query: recorded result category for CCCN(CCC)C(=O)C(CCC(=O)OCCCN1CCN(CCOC(=O)Cc2c(C)n(C(=O)c3ccc(Cl)cc3)c3ccc(OC)cc23)CC1)NC(=O)c1ccccc1 (stereo not given) in this test
**Result** t

**Query** Query: recorded result category for CC(=O)O[C@]1(C(C)=O)CC[C@H]2[C@@H]3C=C(C)C4=CC(=O)CC[C@]4(C)[C@H]3CC[C@@]21C in this test
**Result** f

====

Assay: decreased DLD-1 cellular survival, CellTiter-Glo luminescent readout, NPC compound collection, primary HTS (AID 1117346)
Conditions: DLD-1 viability, CellTiter-Glo luminescence; at 20 µM (top of the series)
Activity calls are given as the source filed them.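 How the source made its calls: active means compounds that lower survival of DLD-1 colon cancer cells in the luminescence readout, no cutoff given; inactive means the rest.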
Respond using exactly one of the listed classes: active, inactive

Use the examples below as a reference point.
{"molecule": "Cc1nc2ccccn2c(=O)c1CCN1CCC(C(=O)c2ccc(F)cc2)CC1", "answer-label": "inactive"}
{"molecule": "O=C(c1cc(O)c(O)c(O)c1)c1ccc(O)c(O)c1O", "answer-label": "active"}
{"molecule": "CC(NC(CCc1ccccc1)C(=O)O)C(=O)N1C(=O)N(C)CC1C(=O)O (stereo unspecified)", "answer-label": "inactive"}
{"molecule": "Cn1c(=O)c2[nH]cnc2n(C)c1=O", "answer-label": "inactive"}

**Query** Query: recorded result category for COc1ccc([C@@H]2Sc3ccccc3N(CCN(C)C)C(=O)[C@@H]2OC(C)=O)cc1 in this test
**Result** inactive

**Query** Query: recorded result category for Cc1cc(N)c2cc(NC(=O)Nc3ccc4nc(C)cc(N)c4c3)ccc2n1 in this test
**Result** active

**Query** Query: recorded result category for CN1C(CSCC(F)(F)F)Nc2cc(Cl)c(S(N)(=O)=O)cc2S1(=O)=O (stereo unspecified) in this test
**Result** inactive

**Query** Query: recorded result category for Cc1c(C(C)C)c(=O)n(-c2ccccc2)n1C in this test
**Result** inactive

**Query** Query: recorded result category for O=C(/C=C/c1ccccc1)OCc1ccccc1 in this test
**Result** inactive

**Query** Query: recorded result category for Nc1ccc(S(=O)(=O)c2ccc(N)cc2)cc1 in this test
**Result** inactive

**Query** Query: recorded result category for Cc1onc(-c2ccccc2)c1-c1ccc(S(N)(=O)=O)cc1 in this test
**Result** inactive

**Query** Query: recorded result category for Cc1ccc(S(=O)(=O)NC(=O)NN2CCCCCC2)cc1 in this test
**Result** inactive

**Query** Query: recorded result category for CC(C)C[C@@H]1[C@H](c2ccccc2)OC(=O)N1CCCN1CCCCCC1 in this test
**Result** inactive

**Query** Query: recorded result category for CN1C(C(=O)Nc2ccccn2)=C(O)c2ccccc2S1(=O)=O in this test
**Result** inactive

**Query** Query: recorded result category for C[C@H]1C[C@H]2[C@@H]3CCC4=CC(=O)C=C[C@]4(C)[C@@]3(Cl)[C@@H](O)C[C@]2(C)[C@@]1(O)C(=O)CO in this test
**Result** inactive

**Query** Query: recorded result category for CCC(=O)O in this test
**Result** inactive

**Query** Query: recorded result category for O=C(O)c1ccccc1Nc1cc(Cl)ccc1C(=O)O in this test
**Result** inactive

**Query** Query: recorded result category for c1ccc2[nH]c(-c3cscn3)nc2c1 in this test
**Result** inactive

**Query** Query: recorded result category for O=C(Nc1ccc(Cl)c(Cl)c1)C1CC1 in this test
**Result** inactive

**Query** Query: recorded result category for NCCC(=O)[N-][C@@H](Cc1cnc[nH]1)C(=O)O.[Zn] in this test
**Result** inactive

**Query** Query: recorded result category for Oc1ccccc1-c1nnco1 in this test
**Result** inactive

**Query** Query: recorded result category for O=C(O)CC(O)C(=O)O (stereo unspecified) in this test
**Result** inactive

**Query** Query: recorded result category for O=C1C(CCS(=O)c2ccccc2)C(=O)N(c2ccccc2)N1c1ccccc1 (stereo unspecified) in this test
**Result** inactive
